system name: TJP1_3, Q07157
Sequence (Q07157 416-512): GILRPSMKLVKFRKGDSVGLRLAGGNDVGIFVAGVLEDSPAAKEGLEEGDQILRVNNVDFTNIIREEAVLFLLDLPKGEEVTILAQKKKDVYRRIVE
assay summary: holdup assay
Parameters: key: below the threshold = too weak to quantify, mostly under pKd 3.1 to 4
condition parameters: plain residues with an end cap or a label only (N-terminal biotin on a linker: ahx)
measure name: pKd

binder="RAVEEEESRF [PSCDBP, O60759]" measure_name=pKd result="below the threshold"
binder="GYDWGPATDL [TJP3, O95049]" measure_name=pKd result="below the threshold"
binder="ESLLLGPSNF [SHROOM4, Q9ULL8]" measure_name=pKd result="below the threshold"
binder="RRRKRKRTYL [HPV49-L2, P36762]" measure_name=pKd result="below the threshold"

For PSASCAVTAA [PDLIM4, P50479;P50479-2] the binder record lists pKd as below the threshold

For SDSSGQEYSL [KCTD3, Q9Y597] the binder record lists pKd as below the threshold
